# assay_explanation: Upregulation of ABCA1 expression in human HepG2 cells expressing luciferase plasmid incubated for 24 hrs by luciferase reporter gene assay
# Type: functional, cell-based
# condition_details: HepG2, 24 h
pEC50: −log10 of the molar value.
reported_property: pEC50

C=CCN(c1nc2ccccc2s1)S(=O)(=O)c1ccc(N)cc1 4.48

I: N#CCN(c1nc2ccc(Cl)cc2s1)S(=O)(=O)c1ccc(N)cc1
II: C=CCN(c1nc2ccc(Cl)cc2s1)S(=O)(=O)c1ccc(N)cc1
Between the entries labelled I and II , which has a larger pEC50 value on record? // output: label of the selected item I

a: CCOC(=O)CN(c1nc2ccc(Cl)cc2s1)S(=O)(=O)c1ccc(N)cc1
b: N#CCN(c1nc2ccccc2s1)S(=O)(=O)c1ccc(N)cc1
Identify the entry with the larger pEC50. Options: a and b State your choice using its label. a
(a: 6.43, b: 5.07)

* * *

# assay_explanation: Upregulation of ABCA1 expression in human HepG2 cells expressing luciferase plasmid incubated for 24 hrs by luciferase reporter gene assay
# Format: functional, cell-based
# condition_details: HepG2, 24 h
pEC50: −log10 of the molar value.
reported_property: pEC50

A selection of reference data follows.
CCOC(=O)CN(c1nc2ccc(F)cc2s1)S(=O)(=O)c1ccc(N)cc1 6.01
N#CCN(c1nc2ccc(F)cc2s1)S(=O)(=O)c1ccc(N)cc1 5.59
CCOC(=O)CN(c1nc2ccc(OC)cc2s1)S(=O)(=O)c1ccc(N)cc1 5.20

A: N#CCN(c1nc2ccc(Cl)cc2s1)S(=O)(=O)c1cccc(N)c1
B: C=CCN(c1nc2ccc(F)cc2s1)S(=O)(=O)c1cccc(N)c1
Endpoint returns the identifier whose pEC50 is numerically larger, either A or B . Answer = label. A

I: CCOC(=O)CN(c1nc2ccccc2s1)S(=O)(=O)c1ccc(N)cc1
II: C=CCN(c1nc2ccc(F)cc2s1)S(=O)(=O)c1ccc(N)cc1
Sorting by pEC50 in descending order, would I or II appear first? State your choice using its label. I
(I: 5.91, II: 5.13)
